Assay: Growth inhibition of VHL-null human RCC4 cells after 4 days by XTT assay
Type: functional
Details: RCC4, 96 h
Criterion: GI50 strictly under 10 µM. Met: true (1). Not met: false (0).

COc1ccc(Nc2nc(-c3ccncc3)cs2)cc1; false (0)

In plain terms, does Cc1cccc(Nc2nc(-c3ccncc3)c(C(N)=O)s2)c1 come in under 10 µM for GI50? false (0)

One more compound: Cc1cccc(Nc2nc(-c3ccncc3)c(CN3CCOCC3)s2)c1 true (1)

One more compound: CC(C)(C)c1cccc(Nc2nc(-c3ccncc3)cs2)c1 false (0)

One more compound: c1cc(-c2csc(Nc3ccc4c(c3)CCC4)n2)ccn1 true (1)

One more compound: Cc1cccc(Nc2nc(-c3ccnc(C#CCO)c3)cs2)c1 true (1)

One more compound: Fc1ccccc1Nc1nc(-c2ccncc2)cs1 false (0)

One more compound: CCN(c1cccc(C)c1)c1nc(-c2ccncc2)cs1 false (0)

One more compound: COc1cc(Nc2nc(-c3ccncc3)cs2)cc(OC)c1 false (0)

One more compound: Cc1ccc(Nc2nc(-c3ccncc3)cs2)cc1C true (1)

One more compound: Cc1ccccc1Nc1nc(-c2ccncc2)cs1 false (0)

One more compound: CCc1cnccc1-c1csc(Nc2cccc(C)c2)n1 true (1)

One more compound: CC(C)c1cccc(Nc2nc(-c3ccncc3)cs2)c1 false (0)

One more compound: Cc1cccc(Nc2nc(-c3ccncc3)c(CCCN3CCOCC3)s2)c1 true (1)

One more compound: COC(=O)/C=C/c1sc(Nc2cccc(C)c2)nc1-c1ccncc1 true (1)

One more compound: Cc1cccc(Nc2nc(-c3ccncc3)c(C(=O)NCCCN3CCOCC3)s2)c1 false (0)

One more compound: FC(F)(F)c1cccc(Nc2nc(-c3ccncc3)cs2)c1 false (0)

One more compound: Brc1cccc(Nc2nc(-c3ccncc3)cs2)c1 false (0)

One more compound: Cc1cccc(Nc2nc(-c3ccnc(CCCO)c3)cs2)c1 true (1)

One more compound: C#Cc1cnccc1-c1csc(Nc2cccc(C)c2)n1 true (1)

One more compound: OCc1sc(Nc2ccc3c(c2)CCC3)nc1-c1ccncc1 true (1)

Values compiled from ChEMBL document CHEMBL1154748.
